These data points were gathered from patent US20240343803A1.

target-desc: T1, human PVRIG on FlpinCHO-PVRIG cells (human, UniProt Q6DKI7 41-326)
T1 construct: whole, on cells
T1 sequence (looked up): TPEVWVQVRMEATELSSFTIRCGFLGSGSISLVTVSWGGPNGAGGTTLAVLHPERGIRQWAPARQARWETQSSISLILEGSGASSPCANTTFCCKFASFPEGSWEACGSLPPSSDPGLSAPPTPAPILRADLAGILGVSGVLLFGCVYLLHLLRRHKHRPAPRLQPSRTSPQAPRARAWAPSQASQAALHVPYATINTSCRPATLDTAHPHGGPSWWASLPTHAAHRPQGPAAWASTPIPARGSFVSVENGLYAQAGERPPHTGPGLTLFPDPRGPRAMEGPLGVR
assay-info: FACS, FlpinCHO-PVRIG cells
Decision: AUC % to parental Ab beneath 90% gives true; AUC % to parental Ab meeting or exceeding 90% gives false.

{"binder": "PVRIG-A50-H1c (Fc fusion, humanized variant of PVRIG-A50; also called A50.VH1c; not shown: constant part not restated for the humanized forms; parents are VHH-hinge-CH2-CH3 of human IgG1; detected by anti-human) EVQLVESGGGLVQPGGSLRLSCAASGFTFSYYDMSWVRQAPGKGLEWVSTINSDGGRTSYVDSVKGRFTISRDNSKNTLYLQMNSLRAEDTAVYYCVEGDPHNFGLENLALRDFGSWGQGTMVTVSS", "answer-label": "false"}
{"binder": "PVRIG-A118-H4 (Fc fusion, humanized variant of PVRIG-A118; also called A118.VH4; not shown: constant part not restated for the humanized forms; parents are VHH-hinge-CH2-CH3 of human IgG1; detected by anti-human) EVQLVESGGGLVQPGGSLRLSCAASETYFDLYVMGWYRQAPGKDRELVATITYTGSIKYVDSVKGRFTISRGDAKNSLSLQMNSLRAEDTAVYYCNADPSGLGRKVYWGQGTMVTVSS", "answer-label": "false"}
{"binder": "PVRIG-A105-H1 (Fc fusion, humanized variant of PVRIG-A105; also called A105.VH1; not shown: constant part not restated for the humanized forms; parents are VHH-hinge-CH2-CH3 of human IgG1; detected by anti-human) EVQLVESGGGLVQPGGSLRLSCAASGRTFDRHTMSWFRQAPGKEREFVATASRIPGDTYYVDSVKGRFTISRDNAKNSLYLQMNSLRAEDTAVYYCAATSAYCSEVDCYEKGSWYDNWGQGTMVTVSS", "answer-label": "false"}

Q: Hello, is AUC % to parental Ab of the following binder strictly smaller than 90%? PVRIG-A50-H1b (Fc fusion, humanized variant of PVRIG-A50; also called A50.VH1b; not shown: constant part not restated for the humanized forms; parents are VHH-hinge-CH2-CH3 of human IgG1; detected by anti-human) EVQLVESGGGLVQPGGSLRLSCAASGFTFSYYDMSWVRQAPGKGLEWVSTINSDGGRTSYVDSVKGRFTISRDNSKNTLYLQMNSLRAEDTAVYYCVEGDPHNFGLESLSLRDFGSWGQGTMVTVSS
Result: true

Q: Hello, is AUC % to parental Ab of the following binder strictly smaller than 90%? PVRIG-A105-H3 (Fc fusion, humanized variant of PVRIG-A105; also called A105.VH3; not shown: constant part not restated for the humanized forms; parents are VHH-hinge-CH2-CH3 of human IgG1; detected by anti-human) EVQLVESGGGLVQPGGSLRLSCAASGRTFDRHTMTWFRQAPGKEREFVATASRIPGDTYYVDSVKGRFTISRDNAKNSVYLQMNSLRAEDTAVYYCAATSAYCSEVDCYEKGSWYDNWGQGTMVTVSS
Result: false

Q: Hello, is AUC % to parental Ab of the following binder strictly smaller than 90%? PVRIG-A118-H1 (Fc fusion, humanized variant of PVRIG-A118; also called A118.VH1; not shown: constant part not restated for the humanized forms; parents are VHH-hinge-CH2-CH3 of human IgG1; detected by anti-human) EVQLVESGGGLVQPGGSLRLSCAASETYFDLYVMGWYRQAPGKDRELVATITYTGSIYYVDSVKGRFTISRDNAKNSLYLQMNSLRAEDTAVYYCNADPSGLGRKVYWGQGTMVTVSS
Result: false

Q: Hello, is AUC % to parental Ab of the following binder strictly smaller than 90%? PVRIG-A105-H3a (Fc fusion, humanized variant of PVRIG-A105; also called A105.VH3a; not shown: constant part not restated for the humanized forms; parents are VHH-hinge-CH2-CH3 of human IgG1; detected by anti-human) EVQLVESGGGLVQPGGSLRLSCAASGRTFDRHTMTWFRQAPGKEREFVATASRIPGDTYYVDSVKGRFTISRDNAKNSVYLQMNSLRAEDTAVYYCAATSAYSSEVDSYEKGSWYDNWGQGTMVTVSS
Result: true

Q: Hello, is AUC % to parental Ab of the following binder strictly smaller than 90%? PVRIG-A105 (Fc fusion, heavy chain antibody VHH-hinge-CH2-CH3, human IgG1 constant part; not shown: human IgG1 hinge-CH2-CH3) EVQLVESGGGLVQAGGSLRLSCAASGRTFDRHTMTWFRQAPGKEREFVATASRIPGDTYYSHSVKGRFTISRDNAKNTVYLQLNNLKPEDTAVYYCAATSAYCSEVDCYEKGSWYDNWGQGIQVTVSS
Result: false

Q: Hello, is AUC % to parental Ab of the following binder strictly smaller than 90%? PVRIG-A50-H1a (Fc fusion, humanized variant of PVRIG-A50; also called A50.VH1a; not shown: constant part not restated for the humanized forms; parents are VHH-hinge-CH2-CH3 of human IgG1; detected by anti-human) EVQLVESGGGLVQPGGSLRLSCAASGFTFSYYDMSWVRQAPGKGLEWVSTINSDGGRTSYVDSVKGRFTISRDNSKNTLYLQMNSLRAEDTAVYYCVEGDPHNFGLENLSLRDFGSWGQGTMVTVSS
Result: false

Q: Hello, is AUC % to parental Ab of the following binder strictly smaller than 90%? PVRIG-A50-H1e (Fc fusion, humanized variant of PVRIG-A50; also called VH1e; not shown: constant part not restated for the humanized forms; parents are VHH-hinge-CH2-CH3 of human IgG1; detected by anti-human) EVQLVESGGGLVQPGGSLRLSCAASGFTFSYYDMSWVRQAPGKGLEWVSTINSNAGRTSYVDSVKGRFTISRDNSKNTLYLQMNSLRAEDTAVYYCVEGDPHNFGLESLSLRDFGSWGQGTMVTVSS
Result: true

Q: Hello, is AUC % to parental Ab of the following binder strictly smaller than 90%? PVRIG-A118-H5 (Fc fusion, humanized variant of PVRIG-A118; also called A118.VH5; not shown: constant part not restated for the humanized forms; parents are VHH-hinge-CH2-CH3 of human IgG1; detected by anti-human) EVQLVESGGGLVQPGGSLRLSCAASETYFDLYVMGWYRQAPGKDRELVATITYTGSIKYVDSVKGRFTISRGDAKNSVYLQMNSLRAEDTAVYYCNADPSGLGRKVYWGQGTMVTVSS
Result: false

Q: Hello, is AUC % to parental Ab of the following binder strictly smaller than 90%? PVRIG-A118-H7 (Fc fusion, humanized variant of PVRIG-A118; also called A118.VH7; not shown: constant part not restated for the humanized forms; parents are VHH-hinge-CH2-CH3 of human IgG1; detected by anti-human) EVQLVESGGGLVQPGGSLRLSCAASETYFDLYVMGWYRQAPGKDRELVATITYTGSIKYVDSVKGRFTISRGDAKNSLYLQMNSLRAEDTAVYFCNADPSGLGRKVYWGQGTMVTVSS
Result: false

Q: Hello, is AUC % to parental Ab of the following binder strictly smaller than 90%? PVRIG-A105-H4 (Fc fusion, humanized variant of PVRIG-A105; also called A105.VH4; not shown: constant part not restated for the humanized forms; parents are VHH-hinge-CH2-CH3 of human IgG1; detected by anti-human) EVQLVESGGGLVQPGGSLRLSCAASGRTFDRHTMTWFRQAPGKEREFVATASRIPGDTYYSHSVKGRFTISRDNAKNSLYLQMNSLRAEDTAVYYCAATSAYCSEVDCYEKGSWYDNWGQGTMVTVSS
Result: false

Q: Hello, is AUC % to parental Ab of the following binder strictly smaller than 90%? PVRIG-A118-H3 (Fc fusion, humanized variant of PVRIG-A118; also called A118.VH3; not shown: constant part not restated for the humanized forms; parents are VHH-hinge-CH2-CH3 of human IgG1; detected by anti-human) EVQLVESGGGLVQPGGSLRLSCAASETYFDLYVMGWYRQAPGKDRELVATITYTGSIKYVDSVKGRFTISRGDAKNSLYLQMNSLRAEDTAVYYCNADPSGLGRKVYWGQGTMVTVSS
Result: false
